Counter-ions that a name gives are not always drawn.
What Ki was measured for each of the following?
Note: unit µM is implicit; provide only the numeric part.

Can you look up Ki on β1-AR (Rattus norvegicus (Rat)) for O=C(O)/C=C/C(=O)O.Oc1cc(O)cc([C@@H](O)CNCCc2ccccc2)c1 [(R)-7, fumarate] ?
42.5

Can you look up Ki on β1-AR (Rattus norvegicus (Rat)) for Oc1cc(O)cc([C@H](O)CNCCc2ccccc2)c1 [(S)-7, Fumarate] ?
52.2
